assay_metric: logP
Numbers only.

Worked examples, 3 compounds total:
>  <compound>
O=C1C=C(N2CCCCC2)C(=O)N1c1ccc(F)cc1

>  <logP>
2.6

$$$$
>  <compound>
COc1cccc(C2CCCCC2=O)c1 (stereo not given)

>  <logP>
2.42

$$$$
>  <compound>
O=c1ssc(-c2ccccc2)c1-c1ccccc1

>  <logP>
4.07

$$$$

Required: logP, one value per compound below.
1. COC(=O)C=CCn1cnc([N+](=O)[O-])n1
2. CCCc1c2c(cc3c(=O)cc(C(=O)O)oc13)CCCC2

[0.09, 4.2]

====

Where a SMILES comes first, the peptide text is derived from it.
Response field class: enum, chosen by comparing logP against class A: < 2; class B: ≥ 2 and < 3; class C: ≥ 3

>  <compound>
CC(NC(=O)C(C)NC(=O)C(N)C(C)C)C(=O)NC(Cc1ccccc1)C(=O)O (stereo unspecified) (H-VAAF-OH; configuration not given here)

>  <assigned_class>
class A

$$$$
>  <compound>
Cn1nc(C(F)(F)F)n(-c2ccccc2)c1=S

>  <assigned_class>
class B

$$$$
>  <compound>
O=C(C=Cc1ccc([N+](=O)[O-])o1)NN=Cc1ccc([N+](=O)[O-])o1

>  <assigned_class>
class B

$$$$
>  <compound>
O=C(O)Cc1c(O)cccc1Nc1c(Cl)cccc1Cl

>  <assigned_class>
class C

$$$$
>  <compound>
O=C(NO)NN=Cc1cccc(C(F)(F)F)c1

>  <assigned_class>
class A

$$$$

Quick check: band for CCOc1cccc(COC(=O)C2C(C=C(C)C)C2(C)C)c1 (stereo unspecified)
class C

Quick check: band for O=C(O)CCCCON=C(c1cccc(C(F)(F)F)c1)c1ncccn1
class B

Quick check: band for CCN(CC)CC(=O)Nc1ccccc1
class B

Quick check: band for O=C(NC1CCCCC1)NS(=O)(=O)c1cnccc1NC1CCCCC1
class C

Where these numbers come from: the OPERA property sets (Mansouri et al. 2018)
